target: ETA Receptor (Rattus norvegicus, UniProt P26684); construct: endogenous in cells; host or cells: MMQ rat pituitary cells (membranes); assay: [125I]ET-1 binding to membranes from MMQ cells (ETA receptor binding assay, Table 4); settings: test compound at 1 μM; 0.1 nM [125I]ET-1, MMQ cell membranes, 4 hours at 25° C.
Sequence (P26684 21-426): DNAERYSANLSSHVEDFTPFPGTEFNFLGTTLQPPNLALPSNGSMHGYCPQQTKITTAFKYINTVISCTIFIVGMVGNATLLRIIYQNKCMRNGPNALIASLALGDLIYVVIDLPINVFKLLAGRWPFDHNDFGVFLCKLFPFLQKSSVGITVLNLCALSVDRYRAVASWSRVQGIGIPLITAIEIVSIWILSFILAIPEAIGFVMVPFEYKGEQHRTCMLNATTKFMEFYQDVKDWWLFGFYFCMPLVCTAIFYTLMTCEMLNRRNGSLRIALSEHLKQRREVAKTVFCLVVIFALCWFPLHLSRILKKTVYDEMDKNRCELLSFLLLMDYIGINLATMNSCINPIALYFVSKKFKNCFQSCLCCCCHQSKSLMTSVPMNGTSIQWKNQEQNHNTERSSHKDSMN
quantity: % Inhibition of ETA at 1 μM (%)

Examples with answers:
stdin: # lookup: % Inhibition of ETA at 1 μM of COc1ccc(C2C(C(=O)O)C(c3ccc4c(c3)OCO4)CN2CCOc2ccccc2)cc1 (centres unmarked) [Example 21]
stdout: 56.3

stdin: # lookup: % Inhibition of ETA at 1 μM of CCCCN(CCCC)C(=O)CN1CC(c2ccc3c(c2)OCO3)C(C(=O)O)C1c1ccc(CC)cc1 (centres unmarked) [Example 307]
stdout: 92.2

stdin: # lookup: % Inhibition of ETA at 1 μM of CCCCN(CCCC)C(=O)CN1CC(c2ccc(OC)cc2OC)C(C(=O)O)C1c1ccc(OC)cc1 (centres unmarked) [Example 151]
stdout: 80.5

stdin: # lookup: % Inhibition of ETA at 1 μM of C#CCN(C)C(=O)CN1CC(c2ccc3c(c2)OCO3)C(C(=O)O)C1c1ccc(OC)cc1 (centres unmarked) [Example 41]
stdout: 89.9

stdin: # lookup: % Inhibition of ETA at 1 μM of COc1ccc(C2C(C(=O)O)C(c3ccc4c(c3)OCO4)CN2CC(=O)N(C)C2CCCCC2)cc1 (centres unmarked) [Example 46]
stdout: 90.4

[1] CCCN(CCN1CC(c2ccc3c(c2)OCO3)C(C(=O)O)C1c1ccc(OC)cc1)S(=O)(=O)CCCCl (centres unmarked) [Example 124]
[2] CCc1ccccc1C(NC(=O)CN1CC(c2ccc3c(c2)OCO3)C(C(=O)O)C1c1ccc(OCCOC(C)C)cc1)c1ccccc1C (centres unmarked) [Example 559]
[3] CCCCN(CCCC)C(=O)CN1CC(c2cccnc2)C(C(=O)O)C1c1ccc(OC)cc1 (centres unmarked) [Example 165]
stdin: Thanks in advance: please rank these 3 entries by % Inhibition of ETA at 1 μM, highest to lowest. I'd appreciate it if you listed the labels in the requested order.
stdout: 1, 3, 2

[A] CCCCN(CCCC)C(=O)CN1CC(c2cccc3occc23)C(C(=O)O)C1c1ccc(OC)cc1 (centres unmarked) [Example 139]
[B] CCCN(C)C(=O)CN1CC(c2ccc(O)cc2)C(C(=O)O)C1c1ccc(OC)cc1 (centres unmarked) [Example 146]
stdin: Response body: label of entry with the larger % Inhibition of ETA at 1 μM; valid values A , B . Select an item and report its label.
stdout: A
(A: 98.6%, B: 25.0%)
